Assay target: human A1AR (Homo sapiens, UniProt P30542)
Sequence (P30542 whole entry): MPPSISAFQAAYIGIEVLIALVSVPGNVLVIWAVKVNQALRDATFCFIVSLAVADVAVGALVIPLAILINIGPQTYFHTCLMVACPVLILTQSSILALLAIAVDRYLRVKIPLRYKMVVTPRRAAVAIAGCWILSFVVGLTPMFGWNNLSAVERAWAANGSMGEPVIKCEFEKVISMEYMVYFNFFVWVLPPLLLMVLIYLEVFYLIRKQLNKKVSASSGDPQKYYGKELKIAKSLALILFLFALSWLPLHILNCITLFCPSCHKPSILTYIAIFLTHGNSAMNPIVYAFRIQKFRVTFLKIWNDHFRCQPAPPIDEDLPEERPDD
Condition parameters: read-out: hA1 Ki; displacement of specific [3H]DPCPX binding, human CHO cells, ± SEM, n = 3
So basically: is Ki under 40 nM? Then Criterion met. Not under? Then Criterion not met.

molecule="CNc1nc(-c2ccccc2)c(C#N)c(-c2ccncc2)n1 [19bb]" discrete_label="Criterion not met"
molecule="N#Cc1c(-c2ccccc2)nc(Nc2ccccc2)nc1-c1ccc(F)cc1 [19w]" discrete_label="Criterion met"
molecule="CNc1nc(-c2ccccc2)c(C#N)c(-c2ccco2)n1 [19at]" discrete_label="Criterion met"

stdin: Quick check: Ki of CNc1nc(-c2ccccc2)c(C#N)c(-c2ccccc2)n1 [19a] under 40 nM?
stdout: Criterion met

stdin: Please indicate whether the reported Ki of N#Cc1c(-c2cccc(Cl)c2)nc(N)nc1-c1cccc(Cl)c1 [18ah] is strictly below 40 nM.
stdout: Criterion met

----------
Documented pKi across a set of compounds
Assay target: human A2AAR (Homo sapiens, UniProt P29274)
Sequence (P29274 whole entry): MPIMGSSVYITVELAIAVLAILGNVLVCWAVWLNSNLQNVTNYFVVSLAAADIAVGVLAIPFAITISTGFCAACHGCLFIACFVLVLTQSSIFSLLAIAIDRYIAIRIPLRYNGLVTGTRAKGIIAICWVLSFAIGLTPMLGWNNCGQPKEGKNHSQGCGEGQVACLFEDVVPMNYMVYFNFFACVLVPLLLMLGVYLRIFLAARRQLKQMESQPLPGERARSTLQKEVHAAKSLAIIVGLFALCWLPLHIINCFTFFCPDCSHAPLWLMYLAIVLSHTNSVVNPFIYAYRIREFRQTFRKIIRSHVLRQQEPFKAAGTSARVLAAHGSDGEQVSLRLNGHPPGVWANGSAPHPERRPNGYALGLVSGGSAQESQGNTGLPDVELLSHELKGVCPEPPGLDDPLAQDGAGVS
Condition parameters: read-out: hA2A Ki; displacement of specific [3H]ZM241385 binding, human HeLa cells, ± SEM, n = 3
pKi field: float, defined as -log10 of concentration (mol/L).

Would you please look over these solved cases?
compound="N#Cc1c(-c2cccc(Cl)c2)nc(N)nc1-c1cc(Cl)cc(Cl)c1 [18ai]" numeric_result=6.72
compound="COc1cc(-c2nc(Nc3ccccc3)nc(-c3ccccc3)c2C#N)cc(OC)c1OC [19as]" numeric_result=7.80
compound="CNc1nc(-c2ccccc2)c(C#N)c(-c2cccc(C#N)c2)n1 [19s]" numeric_result=7.11
compound="COc1cccc(-c2nc(N)nc(-c3ccccc3)c2C#N)c1 [18g]" numeric_result=8.16
compound="CCNc1nc(-c2ccccc2)c(C#N)c(-c2ccccc2)n1 [19b]" numeric_result=6.45

stdin: # get_value(readout='pKi', item= N#Cc1c(-c2ccccc2)nc(N)nc1-c1ccccc1F [18b] )
stdout: 7.75

stdin: # query: pKi of entry N#Cc1c(-c2ccccc2)nc(Nc2ccccc2)nc1-c1ccoc1 [19ay]
stdout: 6.43

stdin: I have this compound here, COc1ccc(-c2nc(N)nc(-c3ccccc3)c2C#N)cc1 [18l] , and I need its recorded pKi.
stdout: 7.34

stdin: # lookup: pKi of COc1ccc(-c2nc(N)nc(-c3ccccc3)c2C#N)c(OC)c1 [18q]
stdout: 7.99

stdin: Would you mind telling me what pKi value was observed for N#Cc1c(-c2ccccc2)nc(N)nc1-c1ccsc1 [18aa] ?
stdout: 7.69

stdin: What does the record list as pKi for N#Cc1c(-c2ccccc2)nc(N)nc1-c1cccs1 [18y] ?
stdout: 7.60

stdin: For the compound shown here, N#Cc1c(-c2ccc(F)cc2)nc(N)nc1-c1ccco1 [18am] , give the reported pKi.
stdout: 8.24

stdin: Item N#Cc1c(-c2ccccc2)nc(Nc2ccccc2)nc1-c1ccc2c(c1)OCO2 [19aq] has what recorded pKi?
stdout: 7.55

stdin: Which pKi is reported for this compound? CNc1nc(-c2ccccc2)c(C#N)c(-c2cc(OC)cc(OC)c2)n1 [19am]
stdout: 7.94

----------
Assay target: human A1AR (Homo sapiens)
Condition parameters: read-out: hA1 Ki; displacement of specific [3H]DPCPX binding, human CHO cells, ± SEM, n = 3
The compounds listed here are annotated with their pKi.
// scale note: pKi = -log10(conc_M); give the bare number

Below, 5 compounds whose answers are already recorded.
compound="CNc1nc(-c2ccccc2)c(C#N)c(-c2cccc(C#N)c2)n1 [19s]" assay_metric=pKi numeric_result=8.52
compound="COc1ccccc1-c1nc(N)nc(-c2ccccc2)c1C#N [18d]" assay_metric=pKi numeric_result=7.88
compound="N#Cc1c(-c2cccc(Cl)c2)nc(N)nc1-c1cc(Cl)cc(Cl)c1 [18ai]" assay_metric=pKi numeric_result=8.11
compound="CNc1nc(-c2ccccc2)c(C#N)c(-c2cc(OC)c(OC)c(OC)c2)n1 [19ar]" assay_metric=pKi numeric_result=7.93
compound="N#Cc1c(-c2ccccc2)nc(Nc2ccccc2)nc1-c1ccccc1 [19c]" assay_metric=pKi numeric_result=7.34

stdin: Consider the compound N#Cc1c(-c2ccccc2)nc(Nc2ccccc2)nc1-c1cccs1 [19aw] and give its measured pKi.
stdout: 7.37

----------
Assay target: human A1AR (Homo sapiens)
Condition parameters: read-out: hA1 Ki; displacement of specific [3H]DPCPX binding, human CHO cells, ± SEM, n = 3
Reported Ki values for the following molecules.
Provide the reading as a plain figure in µM.

Recorded results for 4 molecules are shown here.
molecule="N#Cc1c(-c2ccc(F)cc2)nc(N)nc1-c1ccc2c(c1)OCO2 [18ak]" assay_target="human A1AR (Homo sapiens)" numeric_result=0.0125
molecule="COc1cc(-c2nc(N)nc(-c3ccccc3)c2C#N)cc(OC)c1OC [18v]" assay_target="human A1AR (Homo sapiens)" numeric_result=0.00258
molecule="CNc1nc(-c2ccccc2)c(C#N)c(-c2ccc(C)cc2)n1 [19ad]" assay_target="human A1AR (Homo sapiens)" numeric_result=0.028
molecule="COc1ccc(-c2nc(N)nc(-c3ccc(OC)cc3)c2C#N)cc1 [18al]" assay_target="human A1AR (Homo sapiens)" numeric_result=0.0743

From here, focus on the item given below.
stdin: Lab note: need Ki for CNc1nc(-c2ccccc2)c(C#N)c(-c2cc(OC)cc(OC)c2)n1 [19am] on human A1AR (Homo sapiens), anyone have it?
stdout: 0.011

----------
Assay target: UniProtKB P30542
Condition parameters: read-out: hA1 Ki; displacement of specific [3H]DPCPX binding, human CHO cells, ± SEM, n = 3
Listing: Ki of selected molecules
# output: bare number, implied unit nM

Please review the entries below; each comes with its answer.
molecule="CNc1nc(-c2ccccc2)c(C#N)c(-c2cccc(OC)c2)n1 [19q]" scale_unit=nM numeric_result=13.2
molecule="N#Cc1c(-c2ccccc2)nc(N)nc1-c1ccc(O)cc1 [18m]" scale_unit=nM numeric_result=4.14

stdin: Name the recorded Ki for N#Cc1c(-c2ccccc2)nc(N)nc1-c1ccc(F)cc1 [18j] .
stdout: 4.19

stdin: Quick one: Ki of N#Cc1c(-c2ccccc2)nc(N)nc1-c1ccncc1 [18ab] ?
stdout: 216

stdin: Which measured Ki value corresponds to Cc1ccc(-c2nc(N)nc(-c3ccccc3)c2C#N)cc1 [18n] ?
stdout: 5.38

----------
Readings of Ki for the listed molecules
Assay target: human A2AAR (Homo sapiens, UniProt P29274)
Condition parameters: read-out: hA2A Ki; displacement of specific [3H]ZM241385 binding, human HeLa cells, ± SEM, n = 3
Write down the numeric answer in nM and omit the unit.

molecule="N#Cc1c(-c2ccc(F)cc2)nc(N)nc1-c1ccc2c(c1)OCO2 [18ak]" assay_target="human A2AAR (Homo sapiens, UniProt P29274)" numeric_result=61
molecule="N#Cc1c(-c2ccccc2)nc(N)nc1-c1cccc(O)c1 [18h]" assay_target="human A2AAR (Homo sapiens, UniProt P29274)" numeric_result=10.2
molecule="COc1cc(OC)cc(-c2nc(N)nc(-c3ccccc3)c2C#N)c1 [18t]" assay_target="human A2AAR (Homo sapiens, UniProt P29274)" numeric_result=1.73
molecule="N#Cc1c(-c2ccccc2)nc(N)nc1-c1ccc2c(c1)OCO2 [18u]" assay_target="human A2AAR (Homo sapiens, UniProt P29274)" numeric_result=10.2
molecule="N#Cc1c(-c2cccc(Cl)c2)nc(N)nc1-c1ccc2c(c1)OCO2 [18aj]" assay_target="human A2AAR (Homo sapiens, UniProt P29274)" numeric_result=101
molecule="N#Cc1c(-c2ccccc2)nc(N)nc1-c1ccc(Br)cc1 [18k]" assay_target="human A2AAR (Homo sapiens, UniProt P29274)" numeric_result=21.9
molecule="COc1ccc(-c2nc(Nc3ccccc3)nc(-c3ccccc3)c2C#N)cc1 [19ac]" assay_target="human A2AAR (Homo sapiens, UniProt P29274)" numeric_result=51.4
molecule="N#Cc1c(-c2ccccc2)nc(N)nc1-c1ccc(F)cc1 [18j]" assay_target="human A2AAR (Homo sapiens, UniProt P29274)" numeric_result=16.3
molecule="N#Cc1c(-c2ccccc2)nc(N)nc1-c1ccc(F)cc1F [18o]" assay_target="human A2AAR (Homo sapiens, UniProt P29274)" numeric_result=15.5

Attention now turns to another entry.
stdin: GET /values?readout=Ki&item= N#Cc1c(-c2ccccc2)nc(Nc2ccccc2)nc1-c1ccccc1 [19c]
stdout: 55.1

----------
Assay target: UniProt P29274
Condition parameters: read-out: ki_a2a; supplementary csv, unit inferred
The threshold is 700 nM. Values of Ki beneath it are tagged MET; values meeting or exceeding it are tagged NOT MET.

molecule="N#Cc1c(-c2cccc(Cl)c2)nc(N)nc1-c1ccc2c(c1)OCO2 [18aj]" discrete_label=MET
molecule="CNc1nc(-c2ccccc2)c(C#N)c(-c2ccco2)n1 [19at]" discrete_label=MET
molecule="CCNc1nc(-c2ccccc2)c(C#N)c(-c2ccc3c(c2)OCO3)n1 [19ap]" discrete_label="NOT MET"
molecule="Cc1ccc(-c2nc(Nc3ccccc3)nc(-c3ccccc3)c2C#N)cc1 [19ae]" discrete_label=MET

Kindly review the next molecule as well.
stdin: For this molecule, is Ki lower than 700 nM? N#Cc1c(-c2ccccc2)nc(N)nc1-c1ccncc1 [18ab]
stdout: MET
